TESTED_SYSTEM: recombinant human TFPI (tissue factor pathway inhibitor) (human, UniProt P10646 29-304)
PROTOCOL_DESCRIPTION: cell-based or functional assay
Each entry below carries its recorded FXa assay % of FXa alone, 10 nM Ab, 10 nM TFPI.
Give the quantity in %, number only.

BINDER	VALUE_MEASURED
clone 3131 (antibody, V domains shown) VH: EVQLVESGGGLVKPGGSLRLSCAASGFTFSSYAMSWVRQAPGKGLEWVSTITTGGSYTYYADSVQGRFTISRDNAKNSLYLQMNSLRAEDTAVYYCARQDGQFLMDYWGQGTLVTVSS VL: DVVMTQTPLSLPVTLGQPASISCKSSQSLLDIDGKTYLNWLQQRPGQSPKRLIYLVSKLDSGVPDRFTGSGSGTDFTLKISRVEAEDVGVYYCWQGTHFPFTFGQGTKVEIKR	14.9
clone 4141 (antibody, V domains shown) VH: EVQLVESGGGLVKPGGSLRLSCAASGFTFSSYAMNWVRQAPGKGLEWVGTITTGGSHTYYADSVEGRFTISRDNAKNSLYLQMNSLRAEDTAVYYCARQDGYFLMDYWGQGTLVTVSS VL: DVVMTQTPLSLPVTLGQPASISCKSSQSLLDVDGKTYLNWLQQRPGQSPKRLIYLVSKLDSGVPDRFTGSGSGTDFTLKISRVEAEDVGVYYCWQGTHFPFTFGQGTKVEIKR	16.7

Fill blank: measured FXa assay % of FXa alone, 10 nM Ab, 10 nM TFPI of the binder clone 3115 (antibody, V domains shown) VH: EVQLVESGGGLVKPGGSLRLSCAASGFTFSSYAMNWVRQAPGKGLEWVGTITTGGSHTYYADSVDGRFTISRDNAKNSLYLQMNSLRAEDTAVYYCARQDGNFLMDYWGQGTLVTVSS VL: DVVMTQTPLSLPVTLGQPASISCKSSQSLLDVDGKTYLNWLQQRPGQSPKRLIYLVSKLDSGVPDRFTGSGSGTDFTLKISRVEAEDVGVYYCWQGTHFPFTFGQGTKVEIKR is ____.
16.2

And what about the binder clone 3120 (antibody, V domains shown) VH: EVQLVESGGGLVKPGGSLRLSCAASGFTFSSYAMNWVRQAPGKGLEWVSTITTGGSYTYYADSVEGRFTISRDNAKNSLYLQMNSLRAEDTAVYYCARQDGYFLMDYWGQGTLVTVSS VL: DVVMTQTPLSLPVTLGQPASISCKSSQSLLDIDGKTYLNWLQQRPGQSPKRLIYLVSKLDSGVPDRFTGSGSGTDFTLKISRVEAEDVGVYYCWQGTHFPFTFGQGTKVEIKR ?
33.4

From: patent US20180030151A1
